Below, each entry is listed with its recorded normalized growth.
- assay_method_text: chemical genetic growth profiling, strain panel (AID 1159580);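 further: tested at 20 µM; growth read once vehicle control cultures reached saturation at 30 °C; 1 = growth at the plate median or of vehicle wells; lower values mean less growth of the strain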
- condition_set: S. cerevisiae deletion strains, growth OD, locus YDL134C, strain PPH21, hits give low values
Out of some 5,500 compounds screened, about 2,000 (36%) were called active. Not shown: some 18% with an inconclusive outcome. This is one part of the list.
// return just the number, without any unit appended

Examples with answers:
# molecule, quantity_name, assay_result
rows = [
    ("O=[N+]([O-])c1ccc(N2CCOCC2)cc1", "normalized growth", 0.969),
    ("C=C1C[C@]23C[C@@]1(O)CC[C@H]2[C@@]12C=C[C@H](O)[C@@](C)(C(=O)O1)[C@H]2[C@@H]3C(=O)O", "normalized growth", 1.03),
    ("CCCc1cc(=O)oc2c1c(C)nn2-c1ccccc1", "normalized growth", 0.938),
    ("CN[C@@H]1[C@H](O)[C@H](NC)[C@H]2O[C@@]3(O)C(=O)C[C@@H](C)O[C@H]3O[C@@H]2[C@H]1O", "normalized growth", 1.01),
    ("C[C@H](CCC(=O)O)[C@H]1CCC2C3C(=O)CC4CC(=O)CC[C@]4(C)C3CC(=O)[C@@]21C (stereo not given in full)", "normalized growth", 1.02),
    ("CC(C)CC(NC(=O)OCC1c2ccccc2-c2ccccc21)C(=O)O (stereo not given)", "normalized growth", 0.986),
    ("Cn1ncc(C(=O)O/N=C(/N)c2cc(C(F)(F)F)cc(C(F)(F)F)c2)c1-n1cccc1", "normalized growth", 1.02),
    ("CC(=O)O[C@H]1CC[C@@]2(C)C(C[C@@H](OC(C)=O)[C@@]3(C)C4=CC(=O)O[C@@H](c5ccoc5)[C@]4(C)CCC23)C1(C)C (stereo not given in full)", "normalized growth", 1),
    ("N#CCCC1(CCC#N)c2ccccc2-c2ccccc21", "normalized growth", 1.02),
]

Let's switch to this molecule now.
Inquiry: What value of normalized growth has been reported for the following molecule? OC[C@H]1O[C@@](CO)(O[C@@H]2O[C@H](CO)[C@@H](O)[C@H](O)[C@H]2O)[C@@H](O[C@@H]2O[C@H](CO)[C@@H](O)[C@H](O)[C@H]2O)[C@@H]1O
Reply text: 1.05

* * *

- assay_method_text: chemical genetic growth profiling, strain panel (AID 1159580)
- condition_set: S. cerevisiae deletion strains, growth OD, locus YMR219W, strain ESC1, hits give low values
Hit rate of the full screen: of about 5,500 compounds, about 2,000 (36%) were called active. Not shown: some 18% with an inconclusive outcome. The list shows a part of the results.
quantity_name: normalized growth
// return just the number, without any unit appended

Examples with answers:
# compound, assay_result
rows = [
    ("COCc1cc(=O)n2[nH]c(C(C)(C)C)cc2n1", 0.996),
    ("CCOC(=O)c1ccc(NC(N)=S)cc1", 0.998),
    ("C(=C(c1ccccc1)c1ccccc1)N1CCC1", 0.988),
    ("NNC(=S)Nc1ccc2c(c1)OCCO2", 1.02),
    ("Cn1ncc(C(=O)O/N=C(/N)c2cc(C(F)(F)F)cc(C(F)(F)F)c2)c1-n1cccc1", 1),
]

Inquiry: What value of normalized growth has been reported for the following compound? Cc1ccc(Sc2ccc([N+](=O)[O-])cc2/C=C2\SC(=S)NC2=O)cc1
Reply text: 0.984

Inquiry: What value of normalized growth has been reported for the following compound? CCOC(CN(c1ccc(F)cc1)S(=O)(=O)c1ccc(F)cc1F)OCC
Reply text: 0.994

Inquiry: What value of normalized growth has been reported for the following compound? COC(=O)C/C(N)=C(\C#N)C(=O)OC
Reply text: 0.982

Inquiry: What value of normalized growth has been reported for the following compound? C=Cc1c(SC)sc(C(=O)O)c1C
Reply text: 0.804

Inquiry: What value of normalized growth has been reported for the following compound? Fc1cc(F)cc(COc2cc(Cl)cc(Cl)c2)c1
Reply text: 0.984

Inquiry: What value of normalized growth has been reported for the following compound? COC(=O)c1ccc(S(=O)(=O)N2CCC(C(N)=O)CC2)n1C
Reply text: 0.99

Inquiry: What value of normalized growth has been reported for the following compound? O=C(O)C1C2CCC1C(O)C2 (stereo unspecified)
Reply text: 0.998

* * *

Below, each entry is listed with its recorded normalized growth.
- assay_method_text: chemical genetic growth profiling, strain panel (AID 1159580);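 further: tested at 20 µM; growth read once vehicle control cultures reached saturation at 30 °C; 1 = growth at the plate median or of vehicle wells; lower values mean less growth of the strain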
- condition_set: S. cerevisiae deletion strains, growth OD, locus YBR171W, strain sec66, hits give low values
Among all 5,500 compounds or so, about 2,000 (36%) were called active. Inconclusive results (about 18%) are left out. The list shows a part of the results.

Examples with answers:
# compound, quantity_name, assay_result
rows = [
    ("CC(C)CCCC(C)C1CCC2C3CC(=O)[C@H]4C[C@@H](O)CC[C@]4(C)C3CC[C@]12C (stereo partly specified)", "normalized growth", "1 (inactive)"),
    ("NC(Cn1ccc(=O)c(O)c1)C(=O)O (stereo unspecified)", "normalized growth", "1.03 (inactive)"),
    ("CC(=O)N[C@@H](Cc1c[nH]c2ccccc12)C(N)=O", "normalized growth", "1.01 (inactive)"),
    ("C[n+]1ccccc1/C=N/O", "normalized growth", "1 (inactive)"),
    ("Nc1ccc(C(=O)O)cc1", "normalized growth", "1.02 (inactive)"),
]

Let's switch to this compound now.
Inquiry: What value of normalized growth has been reported for the following compound? CN(C)CCCN1c2ccccc2CCc2ccccc21
Reply text: 1.01 (inactive)

* * *

- assay_method_text: chemical genetic growth profiling, strain panel (AID 1159580);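 further: tested at 20 µM; growth read once vehicle control cultures reached saturation at 30 °C; 1 = growth at the plate median or of vehicle wells; lower values mean less growth of the strain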
- condition_set: S. cerevisiae deletion strains, growth OD, locus YKR026C, strain gcn3
Hit rate of the full screen: of about 5,500 compounds, about 2,000 (36%) were called active. About 18% were inconclusive and are not listed. Rule as the data show it: active = normalized growth mostly below about 0.91 (no sharp cut-off); inconclusive = no clear call, values can overlap the other calls; inactive = mostly above about 0.92. The list shows a part of the results.
Select the matching outcome among t = active, f = inactive

# compound, cat
records = [
    ("CC(=O)Oc1ccc(C(c2ccc(OC(C)=O)cc2)c2ccccn2)cc1", "f"),
    ("OC[C@H]1O[C@@H](O[C@H]2[C@H](O)[C@@H](O)[C@@H](O)O[C@@H]2CO)[C@H](O)[C@@H](O)[C@@H]1O", "f"),
    ("CC(=O)Nc1ccc(S(=O)(=O)Nc2onc(C)c2C)cc1", "f"),
    ("CC(C)c1ccc2c(c1)CCC1C(C)(C(N)=O)CCCC21C (stereo unspecified)", "f"),
    ("CC(C)=CCCC(C)[C@@H]1CC[C@]2(C)C3=C(CC[C@@]12C)C1(C)CC[C@H](O)C(C)(C)C1CC3 (stereo partly specified)", "t"),
    ("CN1CCN(C(=O)OC2c3nccnc3C(=O)N2c2ccc(Cl)cn2)CC1 (stereo unspecified)", "f"),
    ("CCN1CCN(C(=O)NC(C(=O)N[C@@H]2C(=O)N3[C@@H]2SC(C)(C)[C@@H]3C(=O)O)c2ccccc2)C(=O)C1=O (stereo partly specified)", "f"),
    ("CC(C)=CCc1c2c(c3occ(-c4ccc(O)cc4)c(=O)c3c1O)C=CC(C)(C)O2", "f"),
    ("COc1ccc(C2Sc3ccccc3N(CCN(C)C)C(=O)C2OC(C)=O)cc1 (stereo unspecified)", "f"),
    ("CC(=O)c1cc(CC=C(C)C)c(O)c(CC=C(C)C)c1", "f"),
]

Now look at this entry.
Inquiry: Tell me the recorded outcome of this test for C/C=C\C1=C(C(=O)O)N2C(=O)C(NC(=O)C(N)c3ccc(O)cc3)C2SC1 (stereo unspecified) .
Reply text: f

* * *

Below, each entry is listed with its recorded normalized growth.
- assay_method_text: chemical genetic growth profiling, strain panel (AID 1159580);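 further: tested at 20 µM; growth read once vehicle control cultures reached saturation at 30 °C; 1 = growth at the plate median or of vehicle wells; lower values mean less growth of the strain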
- condition_set: S. cerevisiae deletion strains, growth OD, locus YMR263W, strain SAP30, hits give low values
In all, about 5,500 compounds went through this assay and about 2,000 (36%) were called active. Roughly 18% stayed inconclusive and do not appear here. Some of the results follow.
// return just the number, without any unit appended

# molecule, assay_result
records = [
    ("COC(OC)c1cc(=O)[nH]c(=S)[nH]1", 1.03),
    ("CC(=O)OC1CCC2(C)C(CC(OC(C)=O)C3(C)C4=CC(=O)OC(c5ccoc5)C4(C)CCC23)C1(C)C (stereo not drawn)", 0.982),
    ("CCN(CC)CCOC(=O)C(c1ccccc1)C1CCCCC1 (stereo not drawn)", 0.969),
    ("CC12CCC(=O)C=C1CCC1C2[C@@H](O)CC2(C)C1CC[C@]2(O)C(=O)COP(=O)(O)O (stereo partly drawn)", 1.02),
    ("CCOC(=O)[C@H](CCc1ccccc1)N[C@@H](C)C(=O)N1CCC[C@H]1C(=O)O", 1.01),
    ("Cc1cccc(Cn2nc(C(C)(C)C)cc2C(=O)O)c1", 0.998),
    ("COc1ccc([C@@H]2Sc3ccccc3N(CCN(C)C)C(=O)[C@@H]2OC(C)=O)cc1", 0.993),
    ("COC(=O)c1c(OC)cc2c(c1C)Oc1c(Cl)c(O)c(Cl)c(C)c1C(=O)O2", 0.882),
]

Inquiry: What value of normalized growth has been reported for the following molecule? C=Cc1c(SC)sc(C(=O)O)c1C
Reply text: 0.869

Inquiry: What value of normalized growth has been reported for the following molecule? CO[C@H]1CC(O[C@@H]2/C(C)=C/C[C@@H]3C[C@@H](C[C@]4(CC[C@H](C)[C@@H](C5CCCCC5)O4)O3)OC(=O)[C@@H]3C=C(C)/C(=N\O)[C@H]4OC/C(=C\C=C\[C@@H]2C)[C@]43O)O[C@@H](C)C1O (stereo partly drawn)
Reply text: 0.977

Inquiry: What value of normalized growth has been reported for the following molecule? CN(C)CCCN1c2ccccc2CCc2ccccc21
Reply text: 1

Inquiry: What value of normalized growth has been reported for the following molecule? Cc1cccc(C)c1N=C1SCCS1
Reply text: 0.934

Inquiry: What value of normalized growth has been reported for the following molecule? C=C(C)C1(O)OC(=O)C=C1OC (stereo not drawn)
Reply text: 1.01

Inquiry: What value of normalized growth has been reported for the following molecule? COc1c(C)c2c(c(C)c1Cl)Oc1c(Cl)c(OC)c(Cl)c(C)c1C(=O)O2
Reply text: 1.01

Inquiry: What value of normalized growth has been reported for the following molecule? CC(=O)O[C@@H]1C=C[C@@]2(C)C(C[C@@H](OC(C)=O)[C@@]3(C)C4=CC(=O)O[C@@H](c5ccoc5)[C@]4(C)CCC23)C1(C)C (stereo partly drawn)
Reply text: 1

Inquiry: What value of normalized growth has been reported for the following molecule? CN[C@@H]1[C@H](O)[C@H](NC)[C@H]2O[C@@]3(O)C(=O)C[C@@H](C)O[C@H]3O[C@@H]2[C@H]1O
Reply text: 1.01

Inquiry: What value of normalized growth has been reported for the following molecule? O=S(=O)(Oc1ccc(OCc2ccccc2)cc1)c1cc(Cl)cc(Cl)c1
Reply text: 1.01
